These measurements were taken from BigSolDB 2.1.

- MEASUREMENT_CONDITIONS: in water, 284.15 K
MEASURED_ENDPOINT: solubility (mole fraction)
// keep it numeric: no unit symbol after the value

Request: solubility (mole fraction) for O=C(O)COCC(=O)O ?
Response: 0.0469

---

- MEASUREMENT_CONDITIONS: in water, 298.15 K
Form field: solubility (mole fraction) (one value per entry).
// response body must contain only the number

{"SMILES_TEXT": "CC(=O)CCC(=O)O", "solubility (mole fraction)": 0.448}

Request: Reported solubility (mole fraction) for O=C(O)CCCCCCC(=O)O : what is it?
Response: 0.00025

Request: Look up solubility (mole fraction) for this molecule: O=C(O)CCCCCCCC(=O)O
Response: 0.000171

---

- MEASUREMENT_CONDITIONS: in water, 293.75 K
MEASURED_ENDPOINT: solubility (mole fraction)
Simply state the number, no unit and no words.

Request: Which solubility (mole fraction) reading was recorded for the compound O=C(O)COCC(=O)O ?
Response: 0.0748

---

- MEASUREMENT_CONDITIONS: in water, 307.65 K
MEASURED_ENDPOINT: solubility (mole fraction)
Number only, no unit.

Request: Returns the measured solubility (mole fraction) for the input molecule. Input: O=C(O)CCCCCCC(=O)O
Response: 0.000369

---

- MEASUREMENT_CONDITIONS: in water, 310.65 K
MEASURED_ENDPOINT: solubility (mole fraction)
Output spec: single numeric token, no unit.

Request: Quick one: solubility (mole fraction) for O=C(O)COCC(=O)O ?
Response: 0.128

---

- MEASUREMENT_CONDITIONS: in water, 317.65 K
MEASURED_ENDPOINT: solubility (mole fraction)

Request: Bench note: what solubility (mole fraction) did O=C(O)CCCCCCC(=O)O show?
Response: 0.000485

---

- MEASUREMENT_CONDITIONS: in water, 334.65 K
MEASURED_ENDPOINT: solubility (mole fraction)

Request: Please give the measured solubility (mole fraction) for this molecule: O=C(O)CCCCCCC(=O)O
Response: 0.00101

Request: Could you share which solubility (mole fraction) value was measured for O=C(O)CCCCCCCC(=O)O ?
Response: 0.000931

---

- MEASUREMENT_CONDITIONS: in water, 344.15 K
MEASURED_ENDPOINT: solubility (mole fraction)
Enter a number only.

Request: Report solubility (mole fraction) for O=C(O)CCCCCCCC(=O)O please.
Response: 0.00132

---

- MEASUREMENT_CONDITIONS: in water, 330.15 K
MEASURED_ENDPOINT: solubility (mole fraction)
Give the value as a plain number.

Request: Give its solubility (mole fraction) value. Item: O=C(O)CCCCCCCC(=O)O
Response: 0.0007

---

- MEASUREMENT_CONDITIONS: in water, 361.35 K
MEASURED_ENDPOINT: solubility (mole fraction)
I'd appreciate a reply containing only the number, no unit.

Request: Can you share its solubility (mole fraction)? I mean this compound: O=C(O)COCC(=O)O
Response: 0.295

---

- MEASUREMENT_CONDITIONS: in water, 325.85 K
MEASURED_ENDPOINT: solubility (mole fraction)

Request: What does the data say about its solubility (mole fraction)? Entry: O=C(O)CCCCCCC(=O)O
Response: 0.00064

---

- MEASUREMENT_CONDITIONS: in water, 285.85 K
# solubility (mole fraction) annotations
Please give only the number in your answer, with no unit.

{"SMILES_TEXT": "O=C(O)CCCCCCCC(=O)O", "solubility (mole fraction)": "8.13e-05"}

// moving on: another record for solubility (mole fraction)
Request: Which solubility (mole fraction) is reported for this molecule? O=C(O)CCCCCCC(=O)O
Response: 0.000128

---

- MEASUREMENT_CONDITIONS: in water, 278.25 K
MEASURED_ENDPOINT: solubility (mole fraction)

Request: Dear colleague, I am looking for the recorded solubility (mole fraction) of the following molecule: O=C(O)COCC(=O)O
Response: 0.0365

---

- MEASUREMENT_CONDITIONS: in water, 321.15 K
MEASURED_ENDPOINT: solubility (mole fraction)

Request: // query solubility (mole fraction) value for entry O=C(O)COCC(=O)O
Response: 0.161

---

- MEASUREMENT_CONDITIONS: in water, 283.15 K
MEASURED_ENDPOINT: solubility (mole fraction)
The answer should be written as a number, with no unit following it.

Request: Would you mind telling me what solubility (mole fraction) value was observed for CC(=O)CCC(=O)O ?
Response: 0.214

---

- MEASUREMENT_CONDITIONS: in water, 357.15 K
MEASURED_ENDPOINT: solubility (mole fraction)
Give the figure by itself; no unit, no explanation.

Request: Param item = O=C(O)COCC(=O)O ; retrieve measured solubility (mole fraction).
Response: 0.284

---

- MEASUREMENT_CONDITIONS: in water, 316.15 K
MEASURED_ENDPOINT: solubility (mole fraction)
# answer = number (no unit)

Request: What measured solubility (mole fraction) goes with O=C(O)CCCCCCCC(=O)O ?
Response: 0.000336

---

- MEASUREMENT_CONDITIONS: in water, 280.15 K
Entries and their solubility (mole fraction) values follow.
Give the figure by itself; no unit, no explanation.

For orientation, consider the following solved cases.
{"SMILES_TEXT": "CC(=O)CCC(=O)O", "solubility (mole fraction)": 0.18}
{"SMILES_TEXT": "O=C(O)CCCCCCCC(=O)O", "solubility (mole fraction)": "5.94e-05"}

Next up:
Request: GET /values?readout=solubility (mole fraction)&item= O=C(O)CCCCCCC(=O)O
Response: 9.55e-05

---

- MEASUREMENT_CONDITIONS: in water, 325.75 K
MEASURED_ENDPOINT: solubility (mole fraction)
Form: value (number only, do not type unit).

Request: Entry O=C(O)CCCCCCCC(=O)O : reported solubility (mole fraction) = ?
Response: 0.000481

---

- MEASUREMENT_CONDITIONS: in water, 337.15 K
MEASURED_ENDPOINT: solubility (mole fraction)
Reply with just the number.

Request: Fill blank: measured solubility (mole fraction) of the compound O=C(O)CCCCCCC(=O)O is ____.
Response: 0.00117

---

- MEASUREMENT_CONDITIONS: in water, 323.15 K
MEASURED_ENDPOINT: solubility (mole fraction)
No unit in the answer, please; the number alone is enough.

Request: What does the record list as solubility (mole fraction) for O=C(O)COCC(=O)O ?
Response: 0.167

---

- MEASUREMENT_CONDITIONS: in water, 338.15 K
MEASURED_ENDPOINT: solubility (mole fraction)

{"SMILES_TEXT": "O=C(O)COCC(=O)O", "RESULT": 0.22}

// next entry
Request: Name the reported solubility (mole fraction) value associated with the compound O=C(O)CCCCCCCC(=O)O
Response: 0.00128

---

- MEASUREMENT_CONDITIONS: in water, 343.25 K
MEASURED_ENDPOINT: solubility (mole fraction)

Request: Recorded solubility (mole fraction) for O=C(O)CCCCCCC(=O)O , please?
Response: 0.00149

---

- MEASUREMENT_CONDITIONS: in water, 301.25 K
MEASURED_ENDPOINT: solubility (mole fraction)

Request: Requested field: solubility (mole fraction). Item: O=C(O)COCC(=O)O
Response: 0.104

---

- MEASUREMENT_CONDITIONS: in water, 296.65 K
MEASURED_ENDPOINT: solubility (mole fraction)
Lab note: jot the number down without any unit.

Request: Recorded solubility (mole fraction) for O=C(O)COCC(=O)O , please?
Response: 0.0823

---

- MEASUREMENT_CONDITIONS: in water, 343.15 K
MEASURED_ENDPOINT: solubility (mole fraction)
In your answer, state the number alone without any accompanying words.

Request: What value of solubility (mole fraction) has been reported for the following molecule? O=C(O)COCC(=O)O
Response: 0.239

---

- MEASUREMENT_CONDITIONS: in water, 327.65 K
MEASURED_ENDPOINT: solubility (mole fraction)
The response must contain the number and no unit.

Request: Need solubility (mole fraction), item O=C(O)COCC(=O)O
Response: 0.188

---

- MEASUREMENT_CONDITIONS: in water, 288.75 K
MEASURED_ENDPOINT: solubility (mole fraction)
Give the figure by itself; no unit, no explanation.

Request: What does the data say about its solubility (mole fraction)? Entry: O=C(O)COCC(=O)O
Response: 0.0686
